- experimental target: Glucocorticoid receptor (Homo sapiens)
- Sequence (P04150 whole entry): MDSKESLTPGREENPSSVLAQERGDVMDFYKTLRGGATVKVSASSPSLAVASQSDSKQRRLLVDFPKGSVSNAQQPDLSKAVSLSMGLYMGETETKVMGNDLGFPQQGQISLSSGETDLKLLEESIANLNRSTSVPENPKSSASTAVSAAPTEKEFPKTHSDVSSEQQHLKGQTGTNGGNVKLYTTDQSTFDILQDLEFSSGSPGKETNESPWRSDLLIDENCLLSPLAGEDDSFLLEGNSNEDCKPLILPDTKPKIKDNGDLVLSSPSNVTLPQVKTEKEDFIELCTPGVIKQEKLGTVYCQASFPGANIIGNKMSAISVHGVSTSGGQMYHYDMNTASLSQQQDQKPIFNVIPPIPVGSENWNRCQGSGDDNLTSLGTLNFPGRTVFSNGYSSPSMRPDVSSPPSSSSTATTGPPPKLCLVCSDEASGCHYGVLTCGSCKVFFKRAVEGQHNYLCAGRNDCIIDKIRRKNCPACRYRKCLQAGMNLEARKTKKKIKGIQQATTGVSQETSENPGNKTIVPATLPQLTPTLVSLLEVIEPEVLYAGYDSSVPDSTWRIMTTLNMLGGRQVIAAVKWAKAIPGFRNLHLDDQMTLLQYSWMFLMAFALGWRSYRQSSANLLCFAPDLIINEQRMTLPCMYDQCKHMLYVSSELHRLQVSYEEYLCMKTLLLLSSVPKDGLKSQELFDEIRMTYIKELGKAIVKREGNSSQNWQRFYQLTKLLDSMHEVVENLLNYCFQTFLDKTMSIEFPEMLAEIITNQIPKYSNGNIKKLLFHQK
- assay overview: Transactivation activity at human glucocorticoid receptor in cells co-expressing GRE by luciferase reporter gene assay relative to control
- test context: read-out: Efficacy
Hi! Could you tag entries with Emax below 50% as yes (1), and those at or above as no (0)? Much appreciated.

{"compound smiles": "Cn1c(SCC(=O)[C@@]2(O)CC[C@H]3[C@@H]4CCC5=Cc6c(cnn6-c6ccccc6)C[C@]5(C)[C@H]4[C@@H](O)C[C@@]32C)nc2ccccc21", "group label": "no (0)"}
{"compound smiles": "C[C@]12CCC(=O)C=C1CC[C@@H]1[C@@H]2[C@@H](O)C[C@@]2(C)[C@H]1CC[C@]2(O)C(=O)CSc1nnc(-c2ccccc2)o1", "group label": "no (0)"}
{"compound smiles": "C[C@]12Cc3cnn(C4CCCCC4)c3C=C1CC[C@@H]1[C@@H]2[C@@H](O)C[C@@]2(C)[C@H]1CC[C@]2(O)C(=O)CSc1cnc2ccccc2n1", "group label": "no (0)"}
{"compound smiles": "Cc1cccc(SCC(=O)[C@@]2(O)CC[C@H]3[C@@H]4CCC5=CC(=O)CC[C@]5(C)[C@H]4[C@@H](O)C[C@@]32C)n1", "group label": "yes (1)"}
{"compound smiles": "C[C@]12Cc3cnn(C4CCCCC4)c3C=C1CC[C@@H]1[C@@H]2[C@@H](O)C[C@@]2(C)[C@H]1CC[C@]2(O)C(=O)CSc1nc2ccccc2o1", "group label": "no (0)"}
{"compound smiles": "C[C@]12CCC(=O)C=C1CC[C@@H]1[C@@H]2[C@@H](O)C[C@@]2(C)[C@H]1CC[C@]2(O)C(=O)CSc1ccc(Cl)c(Cl)c1", "group label": "yes (1)"}
